System: Streptococcus pyogenes
test-details: In vitro antibacterial activity against PIU 2548 strain of Streptococcus pyogenes
Format: functional
measurement-context: Streptococcus pyogenes
Mark each entry true (1) if its MIC sits below 0.4 mg/L, and false (0) for all others.

INSERT INTO results (molecule, test_system, classification) VALUES
  ('CC[C@H]1OC(=O)/C(C)=C/[C@H](C)[C@@H](O[C@@H]2O[C@H](C)C[C@H](N(C)C)[C@H]2O)[C@@](C)(OC)C[C@@H](C)C(=O)[C@H](C)[C@H]2N(CCc3ccc([N+](=O)[O-])cc3)C(=O)O[C@]12C', 'Streptococcus pyogenes', 'true (1)'),
  ('CC[C@H]1OC(=O)/C(C)=C/[C@H](C)[C@@H](O[C@@H]2O[C@H](C)C[C@H](N(C)C)[C@H]2O)[C@@](C)(OC)C[C@@H](C)C(=O)/C(C)=C/[C@]1(C)OC(=O)NCCCOc1ccc2ccccc2c1', 'Streptococcus pyogenes', 'false (0)'),
  ('CC[C@H]1OC(=O)/C(C)=C/[C@H](C)[C@@H](O[C@@H]2O[C@H](C)C[C@H](N(C)C)[C@H]2O)[C@@](C)(OC)C[C@@H](C)[C@@H]2NCCN3C(=O)O[C@@]1(C)[C@H]3[C@H]2C', 'Streptococcus pyogenes', 'false (0)'),
  ('CC[C@H]1OC(=O)/C(C)=C/[C@H](C)[C@@H](O[C@@H]2O[C@H](C)C[C@H](N(C)C)[C@H]2O)[C@@](C)(OC)C[C@@H](C)C(=O)[C@H](C)[C@H]2N(CCc3ccc(Cl)c(Cl)c3)C(=O)O[C@]12C', 'Streptococcus pyogenes', 'true (1)'),
  ('CC[C@H]1OC(=O)[C@H](C)[C@@H](O[C@H]2C[C@@](C)(OC)[C@@H](O)[C@H](C)O2)[C@H](C)[C@@H](O[C@@H]2O[C@H](C)C[C@H](N(C)C)[C@H]2O)[C@](C)(O)C[C@@H](C)C(=O)[C@H](C)[C@@H](O)[C@]1(C)O', 'Streptococcus pyogenes', 'false (0)');
